# Assay target: CHO-XBP1 luciferase reporter, IRE1-XBP1 UPR activation
# Protocol details: XBP1 luciferase reporter activation – CHO-XBP1 cells, luminescence, counter-screen for apoptotic UPR arm activators, dose response (AID 489040);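 note: reporter read after six hours of compound exposure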
Active and inactive are the calls of the source.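 Rule for the calls: active = mean half-maximal activating concentration from the dose-response fit at or below a set limit; inactive = the rest.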
The reply should be one of these categories: True = active, False = inactive

Data request: I would be grateful if you could indicate the recorded call for "Oc1c(Cl)cc(CN2CCOCC2)c2cccnc12" .
Data returned: False

Data request: I would be grateful if you could indicate the recorded call for "CCCn1c(CC)nc([N+](=O)[O-])c1S(=O)(=O)c1ccccc1" .
Data returned: False

Data request: I would be grateful if you could indicate the recorded call for "CCOC(=O)c1c(-c2ccc(-c3ccccc3)cc2)csc1NC(=O)CNCCN(C)C" .
Data returned: False

Data request: I would be grateful if you could indicate the recorded call for "COc1ccc(O)c(/C=N/Nc2nc(Nc3ccccc3)nc(-n3nc(C)cc3C)n2)c1" .
Data returned: False

Data request: I would be grateful if you could indicate the recorded call for "Cc1ccc(S(=O)(=O)Nc2cccc3cccnc23)c([N+](=O)[O-])c1" .
Data returned: False

Data request: I would be grateful if you could indicate the recorded call for "Cc1ccc(C)c(NC(=S)c2ccccn2)c1" .
Data returned: False

Data request: I would be grateful if you could indicate the recorded call for "Cc1ccc(CN2CCN(/N=C/c3ccc(O)c(O)c3)CC2)cc1" .
Data returned: False

Data request: I would be grateful if you could indicate the recorded call for "O=C(Nc1ccc(S(=O)(=O)N2CCCC2)cc1)c1ccc([N+](=O)[O-])o1" .
Data returned: False

Data request: I would be grateful if you could indicate the recorded call for "CN(C)C(=O)CSc1cccc2cccnc12" .
Data returned: False

Data request: I would be grateful if you could indicate the recorded call for "CCOC(=O)c1ccc(N2C(=O)C=CC2=O)cc1" .
Data returned: False

Data request: I would be grateful if you could indicate the recorded call for "CC1=CC(=O)C(C(C)C)=C/C1=N/OC(=O)c1cccc([N+](=O)[O-])c1" .
Data returned: False

Data request: I would be grateful if you could indicate the recorded call for "C/C(CCC12CC3CC(CC(C3)C1)C2)=N\NC(N)=S" .
Data returned: False

Data request: I would be grateful if you could indicate the recorded call for O=C(NC1CCCC1)C(c1ccc(F)cc1)N(Cc1ccc(Cl)cc1)C(=O)CCl (configuration not stated) .
Data returned: False

Data request: I would be grateful if you could indicate the recorded call for COc1cc(C(Nc2ccccn2)c2ccc3ccc(C)nc3c2O)cc(OC)c1O (configuration not stated) .
Data returned: False
